The measurements presented in this section are drawn from ChEMBL document CHEMBL1629501.

Tested on: Aspergillus flavus
Assay: Antifungal activity against Aspergillus flavus ATCC 485 after 72 to 96 hrs by twofold serial dilution method
Assay type: functional
parameter: MIC (µg/mL)
Numeric only. Scale: µg/mL

In the examples that follow, each entry is paired with its recorded MIC.
- molecule: "O=C(c1cccs1)[C@H]1[C@H](c2ccc([N+](=O)[O-])cc2)C2CCCN2[C@]12C(=O)Nc1ccccc12 (some centres undefined)"
  MIC / µg/mL: 200
- molecule: "CN(C)c1ccc([C@@H]2C3CCCN3[C@]3(C(=O)Nc4ccccc43)[C@H]2C(=O)c2cccs2)cc1 (some centres undefined)"
  MIC / µg/mL: 200
- molecule: "Cc1ccc([C@@H]2C3CCCN3[C@]3(C(=O)Nc4ccccc43)[C@H]2C(=O)c2cccs2)cc1 (some centres undefined)"
  MIC / µg/mL: 25

Attention now shifts to the item below.
Value of measured MIC for the entry O=C(c1cccs1)[C@H]1[C@H](c2ccc(Cl)cc2)C2CCCN2[C@]12C(=O)Nc1ccccc12 (some centres undefined) : 100
